Origin of measurements: ChEMBL document CHEMBL2401692

assay: Intrinsic clearance in rat liver microsomes; assay type: ADME, Microsome; conditions: read-out: CLH
Overview of recorded microsomal CLint for various compounds
Quick reminder: number only, in µL/min/mg, skip the unit.

Ask: I would be grateful if you could share the reported microsomal CLint for Cc1cc(Nc2ncc(Cl)c(Nc3ccccc3S(=O)(=O)C(C)C)n2)c(OC(C)C)cc1C1CCNCC1 .
Reply: 10

Ask: Item: Cc1cc(Nc2ncc(C)c(Nc3ccccc3S(=O)(=O)C(C)C)n2)c(OC(C)C)cc1C1CCN(C)CC1
Reply: 14

Ask: Item: Cc1cc(Nc2ncc(Cl)c(Nc3ccccc3S(=O)(=O)C(C)C)n2)c(OC(C)C)cc1C1CCN(C(=O)CN(C)C)CC1
Reply: 21

Ask: Item: Cc1cc(Nc2ncc(Cl)c(Nc3ccccc3S(=O)(=O)C(C)C)n2)c(OC(C)C)cc1C1CCN(C)CC1
Reply: 4

---

test: Tmax in Sprague-Dawley rat at 10 mg/kg, po; assay type: ADME, organism-based; set-up: dose 10 mg/kg, route oral; conditions: in vivo
Value kind: Tmax (h)
Quick reminder: number only, in h, skip the unit.

Ask: I would be grateful if you could share the reported Tmax for Cc1cc(Nc2ncc(Cl)c(Nc3ccccc3S(=O)(=O)C(C)C)n2)c(OC(C)C)cc1C1CCNCC1 .
Reply: 7

---

target: Fibroblast growth factor receptor 4 (Homo sapiens); assay: Inhibition of FGFR4 (unknown origin) after 60 mins
Sequence (P22455 whole entry): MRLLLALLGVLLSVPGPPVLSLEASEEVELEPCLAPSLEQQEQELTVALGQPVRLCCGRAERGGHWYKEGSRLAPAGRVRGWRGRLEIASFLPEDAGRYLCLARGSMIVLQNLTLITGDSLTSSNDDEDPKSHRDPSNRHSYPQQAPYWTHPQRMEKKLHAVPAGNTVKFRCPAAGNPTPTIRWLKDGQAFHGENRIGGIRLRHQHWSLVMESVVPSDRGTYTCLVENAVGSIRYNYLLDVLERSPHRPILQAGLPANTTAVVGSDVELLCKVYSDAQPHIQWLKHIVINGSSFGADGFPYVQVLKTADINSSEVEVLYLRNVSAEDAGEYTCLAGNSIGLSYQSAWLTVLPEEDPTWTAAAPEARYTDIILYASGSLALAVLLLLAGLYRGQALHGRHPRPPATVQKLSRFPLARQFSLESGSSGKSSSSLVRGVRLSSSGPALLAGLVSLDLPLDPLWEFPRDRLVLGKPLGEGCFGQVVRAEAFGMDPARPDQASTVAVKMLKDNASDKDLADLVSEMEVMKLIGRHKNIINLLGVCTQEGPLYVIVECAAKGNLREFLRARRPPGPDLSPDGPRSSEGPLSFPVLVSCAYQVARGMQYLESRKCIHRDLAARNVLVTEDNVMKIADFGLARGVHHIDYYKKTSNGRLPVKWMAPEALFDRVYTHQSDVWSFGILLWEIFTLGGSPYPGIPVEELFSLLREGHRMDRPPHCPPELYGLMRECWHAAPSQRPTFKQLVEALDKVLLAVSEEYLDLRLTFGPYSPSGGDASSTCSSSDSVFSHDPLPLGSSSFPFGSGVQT
Value kind: pIC50
FYI, pIC50 means -log10 of a concentration in mol per litre.

Ask: I would be grateful if you could share the reported pIC50 for Cc1cc(Nc2ncc(Cl)c(Nc3ccccc3S(=O)(=O)C(C)C)n2)c(OC(C)C)cc1C1CCNCC1 [CERITINIB] .
Reply: 6.02

---

test: Inhibition of Aurora kinase (unknown origin) after 60 mins; set-up: species or system Homo sapiens
Value kind: IC50 (nM)
Quick reminder: number only, in nM, skip the unit.

Ask: I would be grateful if you could share the reported IC50 for Cc1cc(Nc2ncc(Cl)c(Nc3ccccc3S(=O)(=O)C(C)C)n2)c(OC(C)C)cc1C1CCNCC1 .
Reply: 660

---

experiment: Tmax in Beagle dog at 20 mg/kg, po; format: ADME, organism-based, Canis lupus familiaris; design: dose 20 mg/kg, route oral; details: in vivo
Value kind: Tmax (h)
Quick reminder: number only, in h, skip the unit.

Ask: I would be grateful if you could share the reported Tmax for Cc1cc(Nc2ncc(Cl)c(Nc3ccccc3S(=O)(=O)C(C)C)n2)c(OC(C)C)cc1C1CCNCC1 [CERITINIB] .
Reply: 8

---

assay: Oral bioavailability in Beagle dog at 20 mg/kg; type: ADME, organism-based, Canis lupus familiaris; conditions: in vivo
Value kind: bioavailability (%)
Quick reminder: number only, in %, skip the unit.

Ask: I would be grateful if you could share the reported bioavailability for Cc1cc(Nc2ncc(Cl)c(Nc3ccccc3S(=O)(=O)C(C)C)n2)c(OC(C)C)cc1C1CCNCC1 .
Reply: 119

---

target: Serine/threonine-protein kinase PAK 2 (Homo sapiens); assay: Inhibition of PAK2 (unknown origin) after 60 mins
Sequence (Q13177 whole entry): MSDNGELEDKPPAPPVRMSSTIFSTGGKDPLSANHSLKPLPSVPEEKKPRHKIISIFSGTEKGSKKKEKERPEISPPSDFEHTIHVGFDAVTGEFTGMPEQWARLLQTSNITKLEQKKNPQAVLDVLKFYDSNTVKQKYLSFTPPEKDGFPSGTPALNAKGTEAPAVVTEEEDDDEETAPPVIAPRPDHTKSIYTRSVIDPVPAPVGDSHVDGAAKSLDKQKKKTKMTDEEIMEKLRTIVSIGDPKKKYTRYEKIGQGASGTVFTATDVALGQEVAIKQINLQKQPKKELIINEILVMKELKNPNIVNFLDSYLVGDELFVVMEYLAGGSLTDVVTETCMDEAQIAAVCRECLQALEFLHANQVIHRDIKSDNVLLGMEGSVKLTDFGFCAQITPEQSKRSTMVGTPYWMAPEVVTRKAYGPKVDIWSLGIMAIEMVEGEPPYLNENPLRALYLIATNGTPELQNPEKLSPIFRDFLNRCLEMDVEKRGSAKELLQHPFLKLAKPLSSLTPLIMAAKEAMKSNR
pIC50: −log10 of the molar value.
Value kind: pIC50

Ask: I would be grateful if you could share the reported pIC50 for Cc1cc(Nc2ncc(Cl)c(Nc3ccccc3S(=O)(=O)C(C)C)n2)c(OC(C)C)cc1C1CCNCC1 .
Reply: < 5.00

---

experiment: Tmax in Beagle dog at 5 mg/kg, iv; format: ADME, organism-based, Canis lupus familiaris; design: dose 5 mg/kg, route intravenous; conditions: in vivo
Value kind: Tmax (min)
Quick reminder: number only, in min, skip the unit.

Ask: I would be grateful if you could share the reported Tmax for Cc1cc(Nc2ncc(Cl)c(Nc3ccccc3S(=O)(=O)C(C)C)n2)c(OC(C)C)cc1C1CCNCC1 .
Reply: 1.8

---

assay: Half life in BALB/c mouse at 5 mg/kg, iv; format: ADME, organism-based; design: dose 5 mg/kg, route intravenous; conditions: in vivo
Value kind: half-life (h)
Quick reminder: number only, in h, skip the unit.

Ask: I would be grateful if you could share the reported half-life for Cc1cc(Nc2ncc(Cl)c(Nc3ccccc3S(=O)(=O)C(C)C)n2)c(OC(C)C)cc1C1CCNCC1 .
Reply: 6.2

---

test: in vivo; details: Sprague-Dawley, rat, po, 10 mg/kg
Value kind: Cmax (nM)
Quick reminder: number only, in nM, skip the unit.

Ask: I would be grateful if you could share the reported Cmax for Cc1cc(Nc2ncc(Cl)c(Nc3ccccc3S(=O)(=O)C(C)C)n2)c(OC(C)C)cc1C1CCNCC1 .
Reply: 259

---

molecular target: Glycogen synthase kinase-3 beta (Homo sapiens, UniProt P49841)
Sequence (P49841 whole entry): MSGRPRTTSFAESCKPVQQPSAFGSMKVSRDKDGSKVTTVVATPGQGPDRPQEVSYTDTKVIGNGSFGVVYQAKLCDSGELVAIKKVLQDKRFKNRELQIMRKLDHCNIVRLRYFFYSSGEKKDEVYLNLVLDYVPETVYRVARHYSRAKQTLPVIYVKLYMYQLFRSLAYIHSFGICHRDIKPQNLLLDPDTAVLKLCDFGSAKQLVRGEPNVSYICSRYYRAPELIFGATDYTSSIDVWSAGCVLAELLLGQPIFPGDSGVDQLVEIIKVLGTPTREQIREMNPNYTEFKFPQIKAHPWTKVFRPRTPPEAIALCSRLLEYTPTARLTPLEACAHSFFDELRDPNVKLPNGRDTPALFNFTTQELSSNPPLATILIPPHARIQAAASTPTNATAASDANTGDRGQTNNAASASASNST
Value kind: IC50

Ask: I would be grateful if you could share the reported IC50 for Cc1cc(Nc2ncc(Cl)c(Nc3ccccc3S(=O)(=O)C(C)C)n2)c(OC(C)C)cc1C1CCNCC1 .
Reply: > 10 µM

---

experiment: Oral bioavailability in BALB/c mouse at 20 mg/kg; type: ADME, organism-based; conditions: in vivo
Value kind: bioavailability (%)
Quick reminder: number only, in %, skip the unit.

Ask: I would be grateful if you could share the reported bioavailability for Cc1cc(Nc2ncc(Cl)c(Nc3ccccc3S(=O)(=O)C(C)C)n2)c(OC(C)C)cc1C1CCNCC1 [CERITINIB] .
Reply: 55

---

Overview of recorded bioavailability for various compounds
assay: Oral bioavailability in Sprague-Dawley rat at 10 mg/kg; type: ADME, organism-based; details: in vivo
Field note: include the unit after the figure.

Cc1cc(Nc2ncc(Cl)c(Nc3ccccc3S(=O)(=O)C(C)C)n2)c(OC(C)C)cc1C1CCNCC1 [CERITINIB]	66%

Now look at this entry.
Ask: I would be grateful if you could share the reported bioavailability for CC(C)Oc1cc(C2CCNCC2)ccc1Nc1ncc(Cl)c(Nc2ccccc2S(=O)(=O)C(C)C)n1 .
Reply: 12%

---

target: Cyclin-dependent kinase 2 (Homo sapiens)
Value kind: pIC50
FYI, pIC50 means -log10 of a concentration in mol per litre.

Ask: I would be grateful if you could share the reported pIC50 for Cc1cc(Nc2ncc(Cl)c(Nc3ccccc3S(=O)(=O)C(C)C)n2)c(OC(C)C)cc1C1CCNCC1 [CERITINIB] .
Reply: 5.40

---

test: in vivo; details: Sprague-Dawley, rat, iv, 3 mg/kg
Value kind: Cmax (nM)
Quick reminder: number only, in nM, skip the unit.

Ask: I would be grateful if you could share the reported Cmax for Cc1cc(Nc2ncc(Cl)c(Nc3ccccc3S(=O)(=O)C(C)C)n2)c(OC(C)C)cc1C1CCNCC1 [CERITINIB] .
Reply: 770

---

assay: Intrinsic clearance in rat liver microsomes; format: ADME, Microsome; settings: read-out: CLH
Overview of recorded microsomal CLint for various compounds
Quick reminder: number only, in µL/min/mg, skip the unit.

Here is how some compounds turned out for microsomal CLint.
Cc1cc(Nc2ncc(Cl)c(Nc3ccccc3S(=O)(=O)C(C)C)n2)c(OC2CCC2)cc1C1CCNCC1	15
Cc1cc(Nc2ncc(Cl)c(Nc3ccccc3S(=O)(=O)C(C)C)n2)c(OC(C)C)cc1C1CCN(CCO)CC1	14
CC(C)Oc1cc(C2CCNCC2)ccc1Nc1ncc(Cl)c(Nc2ccccc2S(=O)(=O)C(C)C)n1	15

Now look at this entry.
Ask: I would be grateful if you could share the reported microsomal CLint for CC(C)Oc1nc(C2CCNCC2)ncc1Nc1ncc(Cl)c(Nc2ccccc2S(=O)(=O)C(C)C)n1 .
Reply: 18

---

test: AUC in Beagle dog at 5 mg/kg, iv; type: ADME, organism-based, Canis lupus familiaris; parameters: dose 5 mg/kg, route intravenous; conditions: plasma
Value kind: AUC (µM·h)
Quick reminder: number only, in µM·h, skip the unit.

Ask: I would be grateful if you could share the reported AUC for Cc1cc(Nc2ncc(Cl)c(Nc3ccccc3S(=O)(=O)C(C)C)n2)c(OC(C)C)cc1C1CCNCC1 [CERITINIB] .
Reply: 18.1

---

target: Proto-oncogene tyrosine-protein kinase Src (Homo sapiens); assay: Inhibition of TEL-fused SRC (unknown origin) by cell-based assay
Sequence (P12931 2-536 limits assumed): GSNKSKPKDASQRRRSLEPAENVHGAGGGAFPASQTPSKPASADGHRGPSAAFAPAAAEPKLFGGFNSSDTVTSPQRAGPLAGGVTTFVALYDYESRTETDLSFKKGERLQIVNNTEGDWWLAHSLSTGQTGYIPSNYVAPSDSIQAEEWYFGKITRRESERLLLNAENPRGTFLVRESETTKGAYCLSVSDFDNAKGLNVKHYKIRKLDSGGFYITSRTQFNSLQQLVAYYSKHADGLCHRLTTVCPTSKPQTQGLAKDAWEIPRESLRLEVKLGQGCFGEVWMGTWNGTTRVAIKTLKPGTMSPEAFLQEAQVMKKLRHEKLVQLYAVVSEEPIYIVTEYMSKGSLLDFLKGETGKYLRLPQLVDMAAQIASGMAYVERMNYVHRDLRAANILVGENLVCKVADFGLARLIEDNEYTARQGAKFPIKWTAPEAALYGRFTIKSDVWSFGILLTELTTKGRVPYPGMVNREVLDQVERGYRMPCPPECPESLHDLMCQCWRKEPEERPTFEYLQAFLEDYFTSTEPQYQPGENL
Value kind: pIC50
FYI, pIC50 means -log10 of a concentration in mol per litre.

Ask: I would be grateful if you could share the reported pIC50 for Cc1cc(Nc2ncc(Cl)c(Nc3ccccc3S(=O)(=O)C(C)C)n2)c(OC(C)C)cc1C1CCNCC1 .
Reply: 5.77

---

assay: Plasma clearance in Sprague-Dawley rat at 3 mg/kg, iv; assay type: ADME, organism-based; parameters: dose 3 mg/kg, route intravenous
Value kind: clearance (mL/min/kg)
Quick reminder: number only, in mL/min/kg, skip the unit.

Ask: I would be grateful if you could share the reported clearance for Cc1cc(Nc2ncc(Cl)c(Nc3ccccc3S(=O)(=O)C(C)C)n2)c(OC(C)C)cc1C1CCNCC1 .
Reply: 36.8

---

biological target: Rho-associated protein kinase 2 (Homo sapiens)
Sequence (O75116 whole entry): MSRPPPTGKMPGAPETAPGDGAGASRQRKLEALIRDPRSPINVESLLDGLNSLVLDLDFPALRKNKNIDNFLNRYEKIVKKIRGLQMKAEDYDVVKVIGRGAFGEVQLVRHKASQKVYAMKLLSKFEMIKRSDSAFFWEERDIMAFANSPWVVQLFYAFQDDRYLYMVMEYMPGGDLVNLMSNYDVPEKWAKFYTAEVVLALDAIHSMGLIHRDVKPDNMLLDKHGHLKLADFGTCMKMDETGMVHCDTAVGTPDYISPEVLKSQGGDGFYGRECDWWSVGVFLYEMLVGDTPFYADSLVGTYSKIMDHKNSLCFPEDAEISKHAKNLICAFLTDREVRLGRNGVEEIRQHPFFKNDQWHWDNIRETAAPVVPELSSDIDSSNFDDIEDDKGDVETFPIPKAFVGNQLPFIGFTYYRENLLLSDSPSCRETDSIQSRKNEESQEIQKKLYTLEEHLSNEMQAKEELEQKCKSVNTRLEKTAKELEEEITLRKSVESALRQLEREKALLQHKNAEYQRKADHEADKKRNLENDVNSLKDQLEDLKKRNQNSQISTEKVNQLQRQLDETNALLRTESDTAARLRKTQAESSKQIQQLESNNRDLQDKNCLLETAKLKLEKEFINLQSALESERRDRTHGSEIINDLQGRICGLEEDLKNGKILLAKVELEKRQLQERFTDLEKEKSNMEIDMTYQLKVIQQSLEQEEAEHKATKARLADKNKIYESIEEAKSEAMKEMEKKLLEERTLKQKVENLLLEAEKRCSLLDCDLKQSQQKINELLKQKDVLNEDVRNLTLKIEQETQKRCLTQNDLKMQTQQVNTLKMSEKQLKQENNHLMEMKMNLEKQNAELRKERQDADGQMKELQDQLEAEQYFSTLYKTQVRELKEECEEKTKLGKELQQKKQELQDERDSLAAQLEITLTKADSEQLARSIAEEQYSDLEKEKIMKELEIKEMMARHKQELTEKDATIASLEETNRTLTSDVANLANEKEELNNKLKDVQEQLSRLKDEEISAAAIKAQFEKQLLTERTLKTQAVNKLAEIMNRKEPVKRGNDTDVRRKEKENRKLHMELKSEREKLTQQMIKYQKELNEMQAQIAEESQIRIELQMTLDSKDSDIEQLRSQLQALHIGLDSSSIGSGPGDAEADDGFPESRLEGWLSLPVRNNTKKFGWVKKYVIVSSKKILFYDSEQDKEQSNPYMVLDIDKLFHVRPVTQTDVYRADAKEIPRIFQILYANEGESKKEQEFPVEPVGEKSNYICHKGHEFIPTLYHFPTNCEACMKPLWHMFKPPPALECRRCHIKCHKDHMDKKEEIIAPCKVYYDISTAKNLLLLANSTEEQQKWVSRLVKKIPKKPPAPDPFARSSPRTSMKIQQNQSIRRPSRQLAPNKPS
Value kind: IC50
Field note: include the unit after the figure.

Ask: I would be grateful if you could share the reported IC50 for Cc1cc(Nc2ncc(Cl)c(Nc3ccccc3S(=O)(=O)C(C)C)n2)c(OC(C)C)cc1C1CCNCC1 .
Reply: 1270 nM
